biological target: HLA-B*53:01; experiment: IEDB peptide-MHC binding, purified MHC/competitive/fluorescence; filed as Kd, often an IC50 or EC50 that approximates it; bounds were set here for any values at or beyond the usual limits of such assays; details: source organism: Entamoeba histolytica HM-1:IMSS
measurement_label: Kd

sequence_chain=NPAACSYMV measured_value="≥ 5 µM"

----------
biological target: HLA-A*02:01; assay: IEDB peptide-MHC binding, purified MHC/direct/fluorescence; filed as Kd, often an IC50 or EC50 that approximates it; bounds were set here for any values at or beyond the usual limits of such assays; conditions: source organism: West Nile virus
measurement_label: Kd

sequence_chain=VHREWFMDL assayed_system=HLA-A*02:01 measured_value="≥ 20 µM"

----------
Each entry below carries its reported Kd.
target: HLA-B*08:01; test: IEDB peptide-MHC binding, purified MHC/competitive/radioactivity; filed as Kd, often an IC50 or EC50 that approximates it; bounds were set here for any values at or beyond the usual limits of such assays; conditions: source organism: Dengue virus 3 Martinique/1243/1999
measurement_label: Kd (nM)

sequence_chain=IRQMEGEGVL measurement_units=nM measured_value=232
sequence_chain=ESRKTFVEL measurement_units=nM measured_value=632

----------
target: HLA-B*35:01; experiment: IEDB peptide-MHC binding, purified MHC/competitive/fluorescence; filed as Kd, often an IC50 or EC50 that approximates it; bounds were set here for any values at or beyond the usual limits of such assays; details: source organism: Orthohantavirus puumalaense
pKd: −log10 of the molar value.
measurement_label: pKd

sequence_chain=SPVMGVIGF measured_value=9.30

----------
biological target: HLA-A*02:01; experiment: IEDB peptide-MHC binding, purified MHC/competitive/fluorescence; filed as Kd, often an IC50 or EC50 that approximates it; bounds were set here for any values at or beyond the usual limits of such assays; settings: source organism: unidentified
measurement_label: Kd (nM)

sequence_chain=FLHEDLEKL measurement_units=nM measured_value=10

----------
molecular target: HLA-B*15:17; experiment: IEDB peptide-MHC binding, purified MHC/direct/fluorescence; filed as Kd, often an IC50 or EC50 that approximates it; bounds were set here for any values at or beyond the usual limits of such assays; details: source organism: Marburg virus - Musoke, Kenya, 1980
List of Kd values.
measurement_label: Kd

sequence_chain=QGKQHLHSL measurement_label=Kd measured_value="≥ 20 µM"
sequence_chain=GFPSLESSF measurement_label=Kd measured_value="≥ 20 µM"
sequence_chain=THYSGNIVH measurement_label=Kd measured_value="≥ 20 µM"

----------
target: HLA-A*80:01; experiment: IEDB peptide-MHC binding, purified MHC/direct/fluorescence; filed as Kd, often an IC50 or EC50 that approximates it; bounds were set here for any values at or beyond the usual limits of such assays; conditions: source organism: Orthohantavirus andesense
measurement_label: Kd

sequence_chain=ATATWFQYY measurement_label=Kd measured_value="14.2 nM"

----------
molecular target: HLA-B*58:01; assay: IEDB peptide-MHC binding, purified MHC/direct/fluorescence; filed as Kd, often an IC50 or EC50 that approximates it; bounds were set here for any values at or beyond the usual limits of such assays; details: source organism: Lake Victoria marburgvirus - Popp
pKd: −log10 of the molar value.
measurement_label: pKd

sequence_chain=KNYPASLHK assayed_system=HLA-B*58:01 measured_value="≤ 4.70"
